All values here come from ChEMBL document CHEMBL1201862.

// values below are reported GI50
Test system: MOLT-4
EXPERIMENTAL_PROTOCOL: NCI tumour cell line growth inhibition, 48 h
Activity calls are given as the source filed them. No stated cut-off is given here; in the data, active = GI50 up to about 1.1 µM and inactive = higher.

Below, each entry is followed by its recorded GI50 result.
INSERT INTO results (compound, observed_result) VALUES
  ('CC(C)=CCc1c(O)c(CC=C(C)C)c2oc3c(c(=O)c2c1O)C(C=C(C)C)Oc1cc(O)ccc1-3 (configuration not stated)', '3.84 µM (inactive)'),
  ('CCC1CN2CCC1CC2 (configuration not stated)', '> 100 µM (inactive)'),
  ('c1ccc(CN2COc3c(ccc4c5c(ccc34)CN(Cc3ccccc3)CO5)C2)cc1', '> 100 µM (inactive)'),
  ('Clc1cc2nc[nH]c2cc1Cl', '> 100 µM (inactive)'),
  ('CC1=CP(=O)(c2ccccc2)C=C(C)C1=C(Cl)Cl (configuration not stated)', '3.91 µM (inactive)');

Consider the compound shown here: O=C1C2Nc3ccccc3SC2C(=O)N1c1ccc(Br)cc1 (configuration not stated) What is its recorded GI50?
25.4 µM (inactive)

Moving on to the next compound: Cc1ccc([S+]([O-])(=Nc2ccccc2)C(C(C)C)C(C)(C)Cl)cc1 (configuration not stated)
10.5 µM (inactive)

Moving on to the next compound: CC1=NN(c2nc(N)nc(CSc3nc4n(c(=S)n3)CCN4)n2)C(C)(C)C1
> 100 µM (inactive)

Moving on to the next compound: Cc1ccc(OC2CC(n3cnc4ncnc(Cl)c43)OC2Oc2ccc(C)cc2)cc1 (configuration not stated)
4.49 µM (inactive)

Moving on to the next compound: c1ccc(/N=C(\N2CCOCC2)N(CCN2CCOCC2)c2ccccc2)cc1
> 100 µM (inactive)

Moving on to the next compound: Cc1cccc(C)c1NC(=O)C(=O)C1C(=O)NC(=O)NC1=O
> 100 µM (inactive)

Moving on to the next compound: CCc1cccc(CC)c1NC(=O)C(=O)Cc1nc2ccccc2o1
> 100 µM (inactive)

----------
System: SF-295
EXPERIMENTAL_PROTOCOL: NCI tumour cell line growth inhibition, 48 h
Calls of active or inactive are those of the source. No stated cut-off is given here; in the data, active = GI50 up to about 1.1 µM and inactive = higher.
Tick one outcome: True (active), False (inactive)

Check out these entries, answers already filled in.
INSERT INTO assay_data (compound, assigned_label) VALUES
  ('C/C(=N\NC(N)=S)c1cccs1.OB(O)c1ccccc1', 'False'),
  ('CCOC(=O)NC(=O)c1cn(C2CCCCC2)c(=O)[nH]c1=O', 'False'),
  ('O=S1(=O)OCCOS(=O)(=O)C1I', 'False'),
  ('C[C@H]1NC(=O)C2CCCCN2C(=O)CN(C)C(=O)CNC(=O)C2CCCCN2C(=O)[C@@H](NC(=O)c2nc3ccccc3cc2O)[C@@H](C)NC(=O)C2CCCCN2C(=O)CN(C)C(=O)CNC(=O)[C@@H]2CCCCN2C(=O)C1NC(=O)c1nc2ccccc2cc1O (stereo partly specified)', 'True'),
  ('Cn1c(=O)c2c(no[n+]2[O-])c2ccccc21', 'False');

Shifting focus to the compound that follows.
I'd appreciate the recorded outcome for O=C(COc1ccc(OCC(=O)N2C(=O)CC(=O)N(c3ccc(Cl)cc3)C2=S)cc1)N1C(=O)CC(=O)N(c2ccc(Cl)cc2)C1=S from this test.
False
